# Whole brain synaptosomes % inhibition at 3.16 µm DA per entry
target: dopamine (DA) uptake (Rattus norvegicus); construct: Corpora striata are rapidly removed, weighed and homogenized in 9 volumes of ice-cold 0.32 M sucrose; from tissue; host or cells: rat corpora striata, crude synaptosomal supernatant (S1); assay: Inhibition of 3H-dopamine uptake in rat striatal synaptosomes; type: biochemical; details: head says whole brain synaptosomes, method uses striatal synaptosomes, 3H-DA 50 nM
Sequence (P23977 whole entry): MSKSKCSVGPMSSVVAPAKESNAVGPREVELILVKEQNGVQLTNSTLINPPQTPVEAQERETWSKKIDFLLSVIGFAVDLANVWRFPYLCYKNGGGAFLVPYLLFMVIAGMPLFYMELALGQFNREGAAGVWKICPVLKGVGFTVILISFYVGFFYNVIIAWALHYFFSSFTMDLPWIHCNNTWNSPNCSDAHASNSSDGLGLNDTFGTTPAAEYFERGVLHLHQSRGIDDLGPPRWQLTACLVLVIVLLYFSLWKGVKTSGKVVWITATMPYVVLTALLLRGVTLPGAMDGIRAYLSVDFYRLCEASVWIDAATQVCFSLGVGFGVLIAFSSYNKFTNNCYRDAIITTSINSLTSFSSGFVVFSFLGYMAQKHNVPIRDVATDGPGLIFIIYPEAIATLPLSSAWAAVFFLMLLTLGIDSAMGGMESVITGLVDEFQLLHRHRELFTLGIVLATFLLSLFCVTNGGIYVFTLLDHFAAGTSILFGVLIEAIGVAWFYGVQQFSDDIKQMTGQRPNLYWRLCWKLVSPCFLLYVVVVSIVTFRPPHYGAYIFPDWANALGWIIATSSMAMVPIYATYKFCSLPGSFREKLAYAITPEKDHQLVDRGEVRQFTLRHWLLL

Known results for molecules:
- MOLECULE: "O=C(O)/C=C\\C(=O)O.O=S1(=O)c2ccccc2C(c2ccc(Cl)cc2)N1C1CCN(CCO)CC1 (stereo not shown)"
  RECORDED_RESULT: "18.71%"
- MOLECULE: "COc1cc(C(C)=O)ccc1OCCCN1CCC(N2C(c3ccc(Cl)cc3)c3ccccc3S2(=O)=O)CC1 (stereo not shown)"
  RECORDED_RESULT: "67.94%"
- MOLECULE: "Cl.O=S1(=O)c2ccccc2C(c2ccc(F)cc2)N1C1CCNCC1 (stereo not shown)"
  RECORDED_RESULT: "30.34%"

## Input Which Whole brain synaptosomes % inhibition at 3.16 µm DA value is on record for O=C(O)/C=C\C(=O)O.O=C1c2ccccc2C(=O)N1CCCN1CCC(N2C(c3ccc(Cl)cc3)c3ccccc3S2(=O)=O)CC1 (stereo not shown) ?
## Output 57.36%

----------
target: norepinephrine (NE) uptake (Rattus norvegicus, UniProt Q63380); construct: Either whole brain minus cerebella or hypothalamus is weighed and homogenized in 9 volumes of ice-cold 0.32 M sucrose; from tissue; host or cells: rat whole brain minus cerebella or hypothalamus, crude synaptosomal supernatant (S1); experiment: Inhibition of [3H]-norepinephrine uptake in rat whole brain or hypothalamic synaptosomes; format: biochemical; settings: [3H]-NE 50 nM
Sequence (Q63380 1-617): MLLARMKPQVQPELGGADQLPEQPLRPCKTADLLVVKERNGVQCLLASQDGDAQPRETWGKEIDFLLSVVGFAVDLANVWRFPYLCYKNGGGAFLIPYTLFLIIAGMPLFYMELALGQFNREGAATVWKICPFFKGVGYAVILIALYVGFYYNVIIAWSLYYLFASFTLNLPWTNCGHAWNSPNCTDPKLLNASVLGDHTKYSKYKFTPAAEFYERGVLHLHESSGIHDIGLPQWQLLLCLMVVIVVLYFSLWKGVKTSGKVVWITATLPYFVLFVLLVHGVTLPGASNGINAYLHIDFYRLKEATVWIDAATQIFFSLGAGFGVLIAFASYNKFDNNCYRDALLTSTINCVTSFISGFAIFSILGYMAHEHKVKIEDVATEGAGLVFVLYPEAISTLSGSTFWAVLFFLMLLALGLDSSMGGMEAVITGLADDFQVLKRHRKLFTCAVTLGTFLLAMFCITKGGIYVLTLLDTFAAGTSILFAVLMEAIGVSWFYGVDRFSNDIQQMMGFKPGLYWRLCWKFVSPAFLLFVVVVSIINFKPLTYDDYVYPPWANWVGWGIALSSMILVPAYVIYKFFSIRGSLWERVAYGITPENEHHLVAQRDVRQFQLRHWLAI
Reported values of Whole brain synaptosomes % inhibition at 3.16 µm NE for individual entries
Answer in %, number only, no unit symbol.

- COMPOUND: "COc1cc(C(C)=O)ccc1OCCCN1CCC(N2C(c3ccc(Cl)cc3)c3ccccc3S2(=O)=O)CC1 (stereo not shown)"
  RECORDED_RESULT: 55.23
- COMPOUND: "O=C(O)/C=C\\C(=O)O.O=C1c2ccccc2C(=O)N1CCCN1CCC(N2C(c3ccc(Cl)cc3)c3ccccc3S2(=O)=O)CC1 (stereo not shown)"
  RECORDED_RESULT: 28.37

## Input Param readout = Whole brain synaptosomes % inhibition at 3.16 µm NE; param system = norepinephrine (NE) uptake (Rattus norvegicus, UniProt Q63380); param query = O=C(O)/C=C\C(=O)O.O=S1(=O)c2ccccc2C(c2ccc(Cl)cc2)N1C1CCN(CCO)CC1 (stereo not shown) ; response: value
## Output 8.71

## Input // map Cl.O=S1(=O)c2ccccc2C(c2ccc(F)cc2)N1C1CCNCC1 (stereo not shown) to recorded Whole brain synaptosomes % inhibition at 3.16 µm NE (system: norepinephrine (NE) uptake (Rattus norvegicus, UniProt Q63380))
## Output 25.02

----------
target: serotonin (5HT) uptake (Rattus norvegicus, UniProt P31652); construct: Whole brain minus cerebella is weighed and homogenized in 9 volumes of ice-cold 0.32 M sucrose; from tissue; host or cells: rat whole brain minus cerebella, crude synaptosomal supernatant (S1); assay: Inhibition of [3H]-serotonin uptake in rat whole brain synaptosomes; format: biochemical; details: [3H]-5 HT 50 nM
Sequence (P31652 whole entry): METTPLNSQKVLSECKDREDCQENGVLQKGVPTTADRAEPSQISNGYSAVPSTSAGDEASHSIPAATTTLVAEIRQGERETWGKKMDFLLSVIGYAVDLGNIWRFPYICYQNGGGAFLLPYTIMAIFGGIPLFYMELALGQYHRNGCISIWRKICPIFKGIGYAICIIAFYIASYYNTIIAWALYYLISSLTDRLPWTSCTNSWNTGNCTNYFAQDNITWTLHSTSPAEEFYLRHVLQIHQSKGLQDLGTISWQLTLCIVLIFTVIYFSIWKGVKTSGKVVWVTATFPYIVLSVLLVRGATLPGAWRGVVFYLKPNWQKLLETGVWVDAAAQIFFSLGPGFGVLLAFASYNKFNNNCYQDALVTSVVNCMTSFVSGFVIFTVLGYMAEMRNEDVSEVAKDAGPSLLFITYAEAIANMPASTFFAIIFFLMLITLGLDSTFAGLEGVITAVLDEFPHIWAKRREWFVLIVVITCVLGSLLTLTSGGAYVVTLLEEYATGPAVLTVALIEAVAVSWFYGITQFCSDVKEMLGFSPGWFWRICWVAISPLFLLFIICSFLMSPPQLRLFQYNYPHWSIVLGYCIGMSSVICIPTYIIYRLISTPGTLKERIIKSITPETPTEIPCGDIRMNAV
Listed below: Whole brain synaptosomes % inhibition at 3.16 µm 5HT values for each entry.

Look over these answered cases.
- MOLECULE: "O=C(O)/C=C\\C(=O)O.O=C1c2ccccc2C(=O)N1CCCN1CCC(N2C(c3ccc(Cl)cc3)c3ccccc3S2(=O)=O)CC1 (stereo not shown)"
  STUDY_TARGET: "serotonin (5HT) uptake (Rattus norvegicus, UniProt P31652)"
  RECORDED_RESULT: "29.02%"
- MOLECULE: "O=C(O)/C=C\\C(=O)O.O=S1(=O)c2ccccc2C(c2ccc(Cl)cc2)N1C1CCN(CCO)CC1 (stereo not shown)"
  STUDY_TARGET: "serotonin (5HT) uptake (Rattus norvegicus, UniProt P31652)"
  RECORDED_RESULT: "3.68%"
- MOLECULE: "Cl.O=S1(=O)c2ccccc2C(c2ccc(F)cc2)N1C1CCNCC1 (stereo not shown)"
  STUDY_TARGET: "serotonin (5HT) uptake (Rattus norvegicus, UniProt P31652)"
  RECORDED_RESULT: "37.92%"

## Input Need Whole brain synaptosomes % inhibition at 3.16 µm 5HT, item COc1cc(C(C)=O)ccc1OCCCN1CCC(N2C(c3ccc(Cl)cc3)c3ccccc3S2(=O)=O)CC1 (stereo not shown)
## Output 48.78%
